Source: PubChem BioAssay (Tox21)

biological target: Thyrotropin receptor (Homo sapiens); assay: qHTS assay to identify small molecule agonists of the thyroid stimulating hormone receptor (TSHR) signaling pathway (AID 1224843); settings: TSHR-HEK293 cells, cAMP HTRF, agonist mode, 30 min; series mostly up to 92.4 µM; note: nearly all actives have a fitted effect of over 45% in size
Inconclusive results are not listed. Calls of active or inactive are those of the source. Calls come from the whole dose curve.
Possible outcomes: T = active, F = inactive

compound=CCN(CC)c1ccc(C=O)cc1 classname=F
compound=Clc1ccc2c(Cl)ccnc2c1 classname=F
compound=O=C(Nc1ccccc1)c1cc(Cl)ccc1O classname=F
compound=O=S(=O)(c1ccc(OCc2ccccc2)cc1)c1ccccc1O classname=F
compound=CCCCCCCCSCc1cc(C)c(O)c(CSCCCCCCCC)c1 classname=F
compound=C/C=C/C(=O)C1=C(C)C=CCC1(C)C classname=F
compound=O=C1CCCCCCCCCCCCCC1 classname=F
compound=O=C1C=CC(=O)N1c1cccc(N2C(=O)C=CC2=O)c1 classname=T
compound="CCCC(C)C=O (centres undefined)" classname=F
compound=COC(=O)c1ccc([N+](=O)[O-])cc1 classname=F
compound="CC(C)(C)c1ccc(OC2CCCCC2O)cc1 (centres undefined)" classname=F
compound="CCC(O)CO (centres undefined)" classname=F
compound=Nc1ccc2c(S(=O)(=O)O)cccc2c1S(=O)(=O)O classname=F
compound=Nc1cc([N+](=O)[O-])ccc1Cl classname=F
compound=C=Cc1ccc(O)c(OC)c1 classname=F
compound=C=C1CC[C@H]2O[C@]2(C)CC[C@@H]2[C@@H]1CC2(C)C classname=F
compound=CC/C=C(\C)C=O classname=F
compound=O[Si](c1ccccc1)(c1ccccc1)c1ccccc1 classname=T
compound=Brc1cc(Br)cc(Br)c1 classname=F
compound=Oc1cccc2c(O)cccc12 classname=F
compound=Cc1ccc2nc(-c3ccc(N)cc3)sc2c1S(=O)(=O)O classname=F
compound="CC(Cc1ccc(O)c(O)c1)C(C)Cc1ccc(O)c(O)c1 (centres undefined)" classname=F
compound=SC1CCCCC1 classname=F
compound=Cc1cccc(C)c1C classname=F
compound=Cc1cc(F)ccc1-c1cc(N2CC[C@@H](O)[C@H]2CO)ncc1N(C)C(=O)C(C)(C)c1cc(C(F)(F)F)cc(C(F)(F)F)c1 classname=F
compound=COc1ccc(OC)c(N=Nc2c(O)ccc3ccccc23)c1 classname=F
compound=O=c1cc[nH]cc1 classname=F
compound=CCN(CCC#N)c1ccc(N=Nc2ccc([N+](=O)[O-])cc2)cc1 classname=F
compound=CCn1c2ccccc2c2ccccc21 classname=F

---

test system: estrogen-related receptor alpha (ERRalpha) with PGC-1alpha coactivator, human; test: qHTS assay to identify small molecule antagonists of the estrogen related receptor signaling pathway with the pleiotropic PPARgamma coactivator (PGC) (AID 1224821); conditions: ERR/PGC reporter cell line, luciferase, antagonist mode; series mostly up to 46.1 µM; note: nearly all actives have a fitted effect of over 50% in size
Records with an inconclusive call do not appear. Activity calls are given as the source filed them. Calls follow the shape of the full dose curve.
Classes used: TRUE = active, FALSE = inactive

compound="CN1CCCC1CCOC(C)(c1ccccc1)c1ccc(Cl)cc1 (configuration not stated)" target="estrogen-related receptor alpha (ERRalpha) with PGC-1alpha coactivator, human" classname=FALSE
compound="CCCCCC(O)CCCC(=O)O (configuration not stated)" target="estrogen-related receptor alpha (ERRalpha) with PGC-1alpha coactivator, human" classname=FALSE
compound="CNC(=O)[C@H]1O[C@@H](n2cnc3c(NCc4ccc(N)cc4)ncnc32)[C@H](O)C1O (some centres not stated)" target="estrogen-related receptor alpha (ERRalpha) with PGC-1alpha coactivator, human" classname=FALSE
compound=CN(C)C(N)=NCCC[C@H](N)C(=O)O target="estrogen-related receptor alpha (ERRalpha) with PGC-1alpha coactivator, human" classname=FALSE
compound="CC(N)(C(=O)O)c1ccc(C(=O)O)cc1 (configuration not stated)" target="estrogen-related receptor alpha (ERRalpha) with PGC-1alpha coactivator, human" classname=FALSE
compound="CNC(=O)[C@H]1O[C@@H](n2cnc3c(NCc4cccc(I)c4)ncnc32)[C@H](O)C1O (some centres not stated)" target="estrogen-related receptor alpha (ERRalpha) with PGC-1alpha coactivator, human" classname=FALSE
compound=CC[C@@H]1Cc2cc(O)ccc2C2=C1c1ccc(O)cc1C[C@H]2CC target="estrogen-related receptor alpha (ERRalpha) with PGC-1alpha coactivator, human" classname=TRUE

---

experiment: qHTS RealTime-Glo MT Cell Viability Assay in HepG2 cells - 32 hour (AID 1224877); settings: RealTime-Glo luminescence; series mostly up to 76.8 µM; note: nearly all actives have a fitted effect of over 55% in size
Records with an inconclusive call do not appear. Calls of active or inactive are those of the source. Calls come from the whole dose curve; as a rule, active = well fitted cell-killing curve with a large enough effect in the repeat runs; inconclusive = weak or mixed curves; inactive = flat fitted curve, though single readings scatter.
Outcomes: T for active, F for inactive

compound="CCc1cccc(C)c1N(C(=O)CS(=O)(=O)O)C(C)COC (stereo not given)" classname=F
compound="C=CC(=O)OCC(Br)CBr (stereo not given)" classname=F
compound=CN1CCN(CCCN2c3ccccc3Sc3ccc(C(F)(F)F)cc32)CC1 classname=T
compound=Cc1cccc(C)c1C classname=F
compound=CCN(CC)c1ccc(C=O)cc1 classname=F
compound=CCSCC classname=F
compound=c1ccc2occc2c1 classname=F
compound=c1ccc(C[P+](c2ccccc2)(c2ccccc2)c2ccccc2)cc1 classname=F
compound=C1=CCCC1 classname=F
compound=Cc1c(Cl)c(=O)oc2cc(O)ccc12 classname=F
compound=COC(=O)c1ccc([N+](=O)[O-])cc1 classname=F
compound=O=C1CCC/C=C\CCCCCCCCCC1 classname=F
compound=CN1CCN(c2ccccc2/C=C2\SCCN(c3ccc(Cl)c(Cl)c3)C2=O)CC1 classname=T
compound=C=COCCCC classname=F
compound=CCNc1nc(NC(C)(C)C)nc(OC)n1 classname=F
compound=O=C1CCCCCCCCCCCCCC1 classname=F
compound=Clc1ccc2c(Cl)ccnc2c1 classname=F
compound=CSc1nnc(C(C)(C)C)c(=O)[nH]1 classname=F
compound=CC1(C)[C@H](C(=O)OCc2cccc(Oc3ccccc3)c2)[C@@H]1C=C(Cl)Cl classname=F
compound=CC/C=C\C/C=C\C/C=C\CCCCCCCC(=O)OC classname=F
compound=CCCCCN=C(N)N/N=C/c1c[nH]c2ccc(OC)cc12 classname=T
compound=Cc1cc(C)c(O)c(C(C)(C)C)c1 classname=F
compound=CCOC=C(C(=O)OCC)C(=O)OCC classname=F
compound=Cn1ccnc1 classname=F
compound=CC(C)(c1ccc(Oc2ccc(N)cc2)cc1)c1ccc(Oc2ccc(N)cc2)cc1 classname=F
compound=C=CC(C)(C)O classname=F
compound=C=Cc1ccncc1 classname=F
compound=C=Cc1ccc(O)c(OC)c1 classname=F
compound=CCCCCCCCCCCC(=O)Cl classname=F
compound=O=C(NCc1ncc(C(F)(F)F)cc1Cl)c1c(Cl)cccc1Cl classname=F

---

experiment: A CellTox Green Cytotoxicity Assay to monitor cytotoxicity in HEK293 cells - 16 hour (AID 1224888); details: CellTox Green fluorescence; series mostly up to 76.8 µM; note: nearly all actives have a fitted effect of over 35% in size
Records with an inconclusive call do not appear. Calls of active or inactive are those of the source. Calls come from the whole dose curve; as a rule, active = well fitted activation curve with a large enough effect in the repeat runs; inconclusive = weak or mixed curves; inactive = flat fitted curve, though single readings scatter.
Outcome codes: active, inactive

molsmiles=CCCCCCCCCCCC(=O)Cl classname=inactive
molsmiles=[Cl][Eu]([Cl])[Cl] classname=inactive
molsmiles=CN1CC[C@H](c2c(O)cc(O)c3c(=O)cc(-c4ccccc4Cl)oc23)[C@H](O)C1 classname=inactive
molsmiles=CC(=O)CC(N)=O classname=inactive
molsmiles=O=C(CCCCCCCCc1cccnc1)N1CCC(C=C(c2ccccc2)c2ccccc2)CC1 classname=inactive
molsmiles=Cc1ccc(C=O)cc1 classname=inactive
molsmiles=O=C1CCC(=O)N1 classname=inactive
molsmiles=CC(C)(C)c1cc(CCC(=O)OCCSCCOC(=O)CCc2cc(C(C)(C)C)c(O)c(C(C)(C)C)c2)cc(C(C)(C)C)c1O classname=inactive
molsmiles=CCOc1nc(F)cc2nc(S(=O)(=O)Nc3c(Cl)cccc3C(=O)OC)nn12 classname=inactive
molsmiles=Cn1ccnc1 classname=inactive
molsmiles=CCN(CCC#N)c1ccc(N=Nc2ccc([N+](=O)[O-])cc2)cc1 classname=inactive
molsmiles=NC(=O)c1ccccc1Cl classname=inactive
molsmiles=Cc1ccc(N=Nc2c(O)ccc3ccccc23)c(C)c1 classname=inactive
molsmiles=O=C(N[C@H](CO)[C@H](O)c1ccc([N+](=O)[O-])cc1)C(Cl)Cl classname=inactive
molsmiles=CN(C/C=C/c1ccccc1)Cc1cccc2ccccc12 classname=active

---

compounds and their reported activity, negative = inhibition
molecular target: Androgen receptor (Homo sapiens); test: qHTS assay to identify small molecule antagonists of the androgen receptor (AR) signaling pathway using the MDA cell line in the presence of 0.5 nM R1881 (AID 1259243); conditions: MDA-kb2 MMTV-luciferase, R1881 0.5 nM, 16 h; series mostly up to 92.4 µM; note: % is set by controls: 0 for no effect and ±100 for the full control effect; nearly all actives have a fitted effect of over 50% in size
Results filed as inconclusive are left out. Activity calls are given as the source filed them. Calls come from the whole dose curve; as a rule, active = well fitted inhibition curve with a large enough effect in the repeat runs; inconclusive = weak or mixed curves; inactive = no such curve, though single readings can be large or run the other way.
valueType: activity, negative = inhibition

compound=COc1cc2ncnc(Nc3cccc(Cl)c3)c2cc1OC testresult="23.3% [at 19 µM] (inactive)"
compound="C=CC(=O)OCCOC1C2CCC1C1CC=CC12 (stereo not given)" testresult="-0.369% [at 19 µM] (inactive)"
compound=COc1cc(C(C)C)ccc1C testresult="-0.285% [at 19 µM] (inactive)"
compound=CCCCNc1ccc(NCCCC)c2c1C(=O)c1ccccc1C2=O testresult="-3.08% [at 19 µM] (inactive)"
compound=O=C(O)CN(CCCN(CC(=O)O)CC(=O)O)CC(=O)O testresult="1.14% [at 19 µM] (inactive)"
